system: TGF-β-stimulated SMAD3 phosphorylation in BEAS-2B cells; assay: Cellular ALK5 potency assay, inhibition of TGF-β stimulated pSMAD3 formation in BEAS-2B cells; type: cell-based; settings: Homo sapiens, pSMAD3, TGF-β 10 ng/mL, read-out: BEAS2B pIC50 (converted)
Please provide measured IC50 for the entries that follow.

Answered cases to consult:
# compound, IC50
data = [
    ("Cc1cccc(-c2nccc(Nc3ccnc(Nc4nc(C(=O)N5CCN[C@@H](CO)C5)cs4)n3)n2)n1", "0.2 to 1.26 µM"),
    ("Cc1cccc(-c2nccc(Nc3ccnc(Nc4ccc(C(=O)O[C@@H]5CCN(C)C5)s4)n3)n2)n1", "0.0251 to 0.158 µM"),
    ("Cc1cccc(-c2nccc(Nc3ccnc(Nc4csc(C(=O)OC[C@H]5CCCCN5)c4)n3)n2)n1", "0.0251 to 0.158 µM"),
    ("Cc1cccc(-c2nccc(Nc3ccnc(Nc4cncc(C(=O)OC[C@@H]5CCCNC5)c4)n3)n2)n1", "0.0251 to 0.158 µM"),
    ("CC(=O)N(CC1CNC1)c1ccc(Nc2nccc(Nc3ccnc(-c4cccc(C)n4)n3)n2)cc1", "0.0251 to 0.158 µM"),
    ("Cc1cccc(-c2nccc(Nc3ccnc(Nc4ccc(CN5CC(C(=O)OC6CNC6)C5)cc4)n3)n2)n1", "0.0251 to 0.158 µM"),
]

Below are some compounds; for each one, tell me its IC50.
1. Cc1cccc(-c2nccc(Nc3ccnc(Nc4ccc(C(=O)OC5CCNCC5)cc4)n3)n2)n1
2. CCOC(=O)CC1CNCCN1c1ccc(Nc2nccc(Nc3ccnc(-c4cccc(C)n4)n3)n2)cc1 (stereo not drawn)

Reply text:
["0.0251 to 0.158 µM", "0.0251 to 0.158 µM"]

---

I'd appreciate it if you could supply Ki values for the items below.
target: recombinant human ALK5 (TGF-βR1) protein (Homo sapiens); assay: Biochemical ALK5 (TGF-βR1) assay to measure pKi (LANCE Ultra ULight kinase assay); settings: apparent pKi, converted from pIC50 by Cheng-Prusoff
Sequence (P36897 34-503): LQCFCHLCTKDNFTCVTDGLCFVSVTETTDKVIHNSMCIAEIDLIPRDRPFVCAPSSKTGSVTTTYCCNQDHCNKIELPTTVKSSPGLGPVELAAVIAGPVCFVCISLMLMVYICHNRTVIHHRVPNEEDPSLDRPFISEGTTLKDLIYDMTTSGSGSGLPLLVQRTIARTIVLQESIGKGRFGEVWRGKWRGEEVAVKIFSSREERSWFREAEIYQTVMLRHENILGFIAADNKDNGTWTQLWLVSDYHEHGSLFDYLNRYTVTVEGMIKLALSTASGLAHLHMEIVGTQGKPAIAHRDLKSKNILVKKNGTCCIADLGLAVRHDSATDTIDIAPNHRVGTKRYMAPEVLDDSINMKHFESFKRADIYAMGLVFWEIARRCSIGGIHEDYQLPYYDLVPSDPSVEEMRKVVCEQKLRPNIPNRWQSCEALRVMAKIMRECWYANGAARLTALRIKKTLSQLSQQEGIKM

Known results for molecules:
# molecule, Ki
rows = [
    ("Cc1cccc(-c2nccc(Nc3ccnc(Nc4csc(NC(=O)C5CNC5)c4)n3)n2)n1 [Compound 211]", "0.0398 to 0.316 nM"),
    ("Cc1cccc(-c2nccc(Nc3ccnc(Nc4ccc(NC(=O)C5(O)CCNC5)cc4)n3)n2)n1 (stereo not drawn) [Compound 58]", "0.0398 to 0.316 nM"),
    ("Cc1cccc(-c2nccc(Nc3ccnc(Nc4ccc(C)c(CN5CCNCC5)c4)n3)n2)n1 [Compound 247]", "0.0398 to 0.316 nM"),
]

Provide Ki values for the following items, in order.
1. Cc1cccc(-c2nccc(Nc3ccnc(Nc4cccc(NC(=O)C5CCN(C)CC5)c4)n3)n2)n1 [Compound 145]
2. Cc1cccc(-c2nccc(Nc3ccnc(Nc4ccc(CN5C[C@@H](C)NC[C@@H]5C)cc4)n3)n2)n1 [Compound 344]
3. Cc1cccc(-c2nccc(Nc3ccnc(Nc4ccc(N5CCN(CC6CCNC6)CC5)cc4)n3)n2)n1 (stereo not drawn) [Compound 102]
4. CNCCn1cc(-c2ccc(Nc3nccc(Nc4ccnc(-c5cccc(C)n5)n4)n3)cc2)cn1 [Compound 347]
5. Cc1cccc(-c2nc(Nc3ccnc(Nc4ccc(NC5CCNCC5)cc4)n3)c3cccn3n2)n1 [Compound 1042]
6. Cc1cccc(-c2nccc(Nc3ccnc(Nc4cnn(C5CCNC5)c4)n3)n2)n1 (stereo not drawn) [Compound 245]

Reply text:
1: 0.0398 to 0.316 nM; 2: 0.0398 to 0.316 nM; 3: 0.0398 to 0.316 nM; 4: 0.0398 to 0.316 nM; 5: 0.0398 to 0.316 nM; 6: 0.0398 to 0.316 nM

---

For each record, write down the corresponding IC50.
Test system: TGF-β-stimulated SMAD3 phosphorylation in BEAS-2B cells
Test: Cellular ALK5 potency assay, inhibition of TGF-β stimulated pSMAD3 formation in BEAS-2B cells
Type: cell-based
Details: Homo sapiens, pSMAD3, TGF-β 10 ng/mL, read-out: BEAS2B pIC50 (converted)
Method: The potency of compounds of the present disclosure for inhibition of TGF-β-stimulated SMAD3 phosphorylation was measured in BEAS-2B cells, a human lung epithelial cell line. […] For the assay, BEAS-2B cells were seeded at 7,500 cells/well (25 μL/well) in a 384-well plate and cultured overnight. […] AlphaLISA Acceptor and Detector beads (PerkinElmer) were added 2 hours apart, then incubated overnight to be read the next day. […] Data are expressed as pIC50 (negative decadic logarithm IC50) values.

Answered examples (3):
# compound, target.system, data.value
data = [
    ("Cc1cccc(-c2nccc(Nc3ccnc(Nc4ccc(C(=O)O[C@H]5CCNC5)cn4)n3)n2)n1 [Compound 575]", "TGF-β-stimulated SMAD3 phosphorylation in BEAS-2B cells", "200 to 1260 nM"),
    ("Cc1cccc(-c2nccc(Nc3ccnc(Nc4ccc(CN5CCCC(C(=O)O[C@H]6CCNC6)C5)cc4)n3)n2)n1 (mixture of isomers) [Compound 212]", "TGF-β-stimulated SMAD3 phosphorylation in BEAS-2B cells", "25.1 to 158 nM"),
    ("Fc1ccc(-c2nccc(Nc3ccnc(Nc4ccc(N5CCOCC5)cc4)n3)n2)c(F)c1 [Compound 35]", "TGF-β-stimulated SMAD3 phosphorylation in BEAS-2B cells", "25.1 to 158 nM"),
]

Please look at the following compound next.
Record summary for Cc1cccc(-c2nccc(Nc3ccnc(Nc4ccc(CN5CC6CCC(C5)O6)cc4)n3)n2)n1 [Compound 395] : reported IC50 = 25.1 to 158 nM

---

Kindly supply the reported Ki values for the records listed here.
target: recombinant human ALK5 (TGF-βR1) protein (Homo sapiens); assay: Biochemical ALK5 (TGF-βR1) assay to measure pKi (LANCE Ultra ULight kinase assay); details: apparent pKi, converted from pIC50 by Cheng-Prusoff

Give one value of Ki per listed compound.
1. Cc1cccc(-c2nccc(Nc3ccnc(Nc4ccc5[nH]ncc5c4)n3)n2)n1
2. Cc1cccc(-c2nccc(Nc3ccnc(Nc4ccc(NS(=O)(=O)N5CCNCC5)cc4)n3)n2)n1
3. Cc1cccc(-c2nccc(Nc3ccnc(Nc4ccc(CN5CCN[C@H](CO)C5)cc4)n3)n2)n1
4. Cc1cccc(-c2nccc(Nc3ccnc(Nc4ccc(O)cc4)n3)n2)n1

Reply text:
0.398 to 3.16 nM
0.0398 to 0.316 nM
0.0398 to 0.316 nM
0.398 to 3.16 nM

Could you tell me Ki for each of these compounds? They are listed below.
1. Cc1cccc(-c2nc(Nc3ccnc(Nc4ccc(NCC5CNC5)cc4)n3)c3cccn3n2)n1
2. Cc1cccc(-c2nccc(Nc3ccnc(Nc4ccc(NS(=O)(=O)N(C)C)cc4)n3)n2)n1
3. Cc1cccc(-c2nccc(Nc3ccnc(Nc4ccc(C(=O)O[C@H]5CCN(C)C5)s4)n3)n2)n1
4. Cc1cccc(-c2nccc(Nc3ccnc(Nc4ccc(N5CC(N)C5)cc4)n3)n2)n1

Reply text:
["0.0398 to 0.316 nM", "0.398 to 3.16 nM", "0.0398 to 0.316 nM", "0.0398 to 0.316 nM"]

---

Give IC50 for every item shown.
test system: TGF-β-stimulated SMAD3 phosphorylation in BEAS-2B cells; test: Cellular ALK5 potency assay, inhibition of TGF-β stimulated pSMAD3 formation in BEAS-2B cells; type: cell-based; conditions: Homo sapiens, pSMAD3, TGF-β 10 ng/mL, read-out: BEAS2B pIC50 (converted)

# smiles.structure, target.system, IC50
data = [
    ("Cc1cccc(-c2nccc(Nc3ccnc(Nc4ccc(CC5CCNCC5)cc4)n3)n2)n1", "TGF-β-stimulated SMAD3 phosphorylation in BEAS-2B cells", "25.1 to 158 nM"),
    ("Cc1cccc(-c2nccc(Nc3ccnc(Nc4ccc(C(=O)OCC5CCNCC5)nc4)n3)n2)n1", "TGF-β-stimulated SMAD3 phosphorylation in BEAS-2B cells", "25.1 to 158 nM"),
    ("Cc1cccc(-c2nccc(Nc3ccnc(Nc4csc(C(=O)OCC5CNC5)c4)n3)n2)n1", "TGF-β-stimulated SMAD3 phosphorylation in BEAS-2B cells", "25.1 to 158 nM"),
]

Now for another entry.
Input `Cc1cccc(-c2nccc(Nc3ccnc(Nc4ccc(CN5CCC[C@@H](C(=O)O[C@H]6CCN(C)C6)C5)cc4)n3)n2)n1` . Output IC50: ≤ 20 nM

---

system: TGF-β-stimulated SMAD3 phosphorylation in BEAS-2B cells; experiment: Cellular ALK5 potency assay, inhibition of TGF-β stimulated pSMAD3 formation in BEAS-2B cells; assay type: cell-based; conditions: Homo sapiens, pSMAD3, TGF-β 10 ng/mL, read-out: BEAS2B pIC50 (converted)
measure.name: IC50

Please review the entries below; each comes with its answer.
# compound, target.system, IC50
rows = [
    ("Cc1cccc(-c2nccc(Nc3ccnc(Nc4ccc(C5CCNCC5)cn4)n3)n2)n1 [Compound 114]", "TGF-β-stimulated SMAD3 phosphorylation in BEAS-2B cells", "200 to 1260 nM"),
    ("Cc1cccc(-c2nccc(Nc3ccnc(Nc4ccc(C(=O)NC5CNC5)cc4)n3)n2)n1 [Compound 387]", "TGF-β-stimulated SMAD3 phosphorylation in BEAS-2B cells", "≤ 20 nM"),
    ("Cc1cccc(-c2nccc(Nc3ccnc(Nc4ccc(CN5CCC(C(=O)OCC6CNC6)C5)cc4)n3)n2)n1 (centres unmarked) [Compound 518]", "TGF-β-stimulated SMAD3 phosphorylation in BEAS-2B cells", "25.1 to 158 nM"),
    ("COC(=O)Cc1cc(Nc2nccc(Nc3ccnc(-c4cccc(C)n4)n3)n2)ccc1N1CCNCC1 [Compound 252]", "TGF-β-stimulated SMAD3 phosphorylation in BEAS-2B cells", "25.1 to 158 nM"),
    ("Cc1cccc(-c2nccc(Nc3ccnc(Nc4ccc(N5CC(N)C5)cc4)n3)n2)n1 [Compound 98]", "TGF-β-stimulated SMAD3 phosphorylation in BEAS-2B cells", "25.1 to 158 nM"),
    ("COC(=O)Cc1ccc(Nc2nccc(Nc3ccnc(-c4cccc(C)n4)n3)n2)cc1 [Compound 442]", "TGF-β-stimulated SMAD3 phosphorylation in BEAS-2B cells", "25.1 to 158 nM"),
    ("Cc1cccc(-c2nccc(Nc3ccnc(Nc4cccc(NC(=O)C5CNC5)c4)n3)n2)n1 [Compound 154]", "TGF-β-stimulated SMAD3 phosphorylation in BEAS-2B cells", "25.1 to 158 nM"),
]

Moving on to another compound below.
Lab note: Cc1cccc(-c2nccc(Nc3ccnc(Nc4ccc(-c5cn(Cc6ccccc6)nn5)cc4)n3)n2)n1 [Compound 333] gave IC50 of 25.1 to 158 nM

Reference for the values: patent US20230399312A1
